System: PC-14
Assay: relative viability (nuclei count vs DMSO), 5 days (fraction); higher = more cells survive
Details: first compound 0.4 µM
The entries below come with measured relative viability values attached.
Give only the figure.

For orientation, consider the following solved cases.
[
  {
    "compound": "Cc1sc2c(c1C)C(c1ccc(Cl)cc1)=N[C@@H](CC(=O)OC(C)(C)C)c1nnc(C)n1-2 [JQ1] + N=C(N)NC(=N)NCCc1ccccc1 [Phenformin] (partner 250 µM)",
    "relative viability": 0.432
  },
  {
    "compound": "Cc1sc2c(c1C)C(c1ccc(Cl)cc1)=N[C@@H](CC(=O)OC(C)(C)C)c1nnc(C)n1-2 [JQ1] + CC(C)C[C@H](NC(=O)[C@H](Cc1ccccc1)NC(=O)c1cnccn1)B(O)O [Bortezomib] (partner 0.002 µM)",
    "relative viability": 0.888
  }
]

As a next step, examine the compound that follows.
# value of relative viability, PC-14, item Cc1sc2c(c1C)C(c1ccc(Cl)cc1)=N[C@@H](CC(=O)OC(C)(C)C)c1nnc(C)n1-2 [JQ1] + Cc1nc(Nc2ncc(C(=O)Nc3c(C)cccc3Cl)s2)cc(N2CCN(CCO)CC2)n1 [Dasatinib] (partner 0.075 µM) = 0.119

* * *

System: NCI-H2347
Test: relative viability (nuclei count vs DMSO), 5 days (fraction); higher = more cells survive
Settings: first compound 0.01581 µM
property_label: relative viability
Answer field: number only, no words.

Worked cases, relative viability given:
[
  {
    "compound": "COc1cc2nccc(Oc3ccc(NC(=O)Nc4cc(C)on4)c(Cl)c3)c2cc1OC [Tivozanib] + CC1(C)CCC(c2ccc(Cl)cc2)=C(CN2CCN(c3ccc(C(=O)NS(=O)(=O)c4ccc(N[C@H](CCN5CCOCC5)CSc5ccccc5)c(S(=O)(=O)C(F)(F)F)c4)cc3)CC2)C1 [Navitoclax] (partner 0.5 µM)",
    "relative viability": 0.765
  },
  {
    "compound": "Nc1ccn([C@@H]2O[C@H](CO)[C@@H](O)[C@@H]2O)c(=O)n1 [Cytarabine] + COc1cccc2cc(-c3nc([C@H]4CC[C@H](C(=O)O)CC4)n4ncnc(N)c34)[nH]c12 [OSI-027] (partner 0.5 µM)",
    "relative viability": 0.282
  },
  {
    "compound": "Nc1ccn([C@@H]2O[C@H](CO)[C@@H](O)[C@@H]2O)c(=O)n1 [Cytarabine] + Cc1cc(Nc2cc(N3CCN(C)CC3)nc(Sc3ccc(NC(=O)C4CC4)cc3)n2)n[nH]1 [Tozasertib] (partner 0.1 µM)",
    "relative viability": 0.427
  },
  {
    "compound": "COc1cc2nccc(Oc3ccc(NC(=O)Nc4cc(C)on4)c(Cl)c3)c2cc1OC [Tivozanib] + CS(=O)(=O)N1CCN(Cc2cc3nc(-c4cccc5[nH]ncc45)nc(N4CCOCC4)c3s2)CC1 [Pictilisib] (partner 1 µM)",
    "relative viability": 0.53
  }
]

Note to self: relative viability of COc1cc2nccc(Oc3ccc(NC(=O)Nc4cc(C)on4)c(Cl)c3)c2cc1OC [Tivozanib] + CCNC(=O)c1noc(-c2cc(C(C)C)c(O)cc2O)c1-c1ccc(CN2CCOCC2)cc1 [Luminespib] (partner 0.01 µM) with NCI-H2347 was 0.488

With NCI-H2347 as the test system, Nc1ccn([C@@H]2O[C@H](CO)[C@@H](O)[C@@H]2O)c(=O)n1 [Cytarabine] + O=C(c1cc(Cc2n[nH]c(=O)c3ccccc23)ccc1F)N1CCN(C(=O)C2CC2)CC1 [Olaparib] (partner 8 µM) showed relative viability of 0.569

The compound COc1cc2nccc(Oc3ccc(NC(=O)Nc4cc(C)on4)c(Cl)c3)c2cc1OC [Tivozanib] + Cc1nc(NC(=O)N2CCC[C@H]2C(N)=O)sc1-c1ccnc(C(C)(C)C(F)(F)F)c1 [Alpelisib] (partner 2 µM) on NCI-H2347: relative viability was 1.03

Recorded relative viability for Nc1ccn([C@@H]2O[C@H](CO)[C@@H](O)[C@@H]2O)c(=O)n1 [Cytarabine] + CS(=O)(=O)CCNCc1ccc(-c2ccc3ncnc(Nc4ccc(OCc5cccc(F)c5)c(Cl)c4)c3c2)o1 [Lapatinib] (partner 2 µM) on NCI-H2347 was 0.942
